Record form. Attribute: Ratio of PDL1:CD28. Fill in for each entry.
molecular target: huPD-L1 (Homo sapiens, UniProt Q9NZQ7); experiment: Flow binding to CHO cells stably expressing PD-L1; set-up: huCTLA4 and huPD-L1, full-length mammalian surface expression constructs were generated; expressed in transfected cells; host or cells: CHO cells, lentiviral transduction, sorted to >98% purity; settings: Table E11; MFI at 33.3 nM
Sequence (Q9NZQ7 19-290): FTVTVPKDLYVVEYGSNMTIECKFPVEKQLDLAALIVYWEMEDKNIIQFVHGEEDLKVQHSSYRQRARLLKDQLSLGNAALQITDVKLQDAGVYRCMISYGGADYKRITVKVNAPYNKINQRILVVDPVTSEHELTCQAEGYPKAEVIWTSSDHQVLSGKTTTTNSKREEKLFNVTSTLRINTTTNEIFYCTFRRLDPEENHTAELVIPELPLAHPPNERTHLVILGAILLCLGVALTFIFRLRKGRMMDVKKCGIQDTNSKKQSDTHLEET
Just the number, please, no unit after it.

get_value(item= E35D/M47L/Y53F/V68M/A71G/K93R/E95V (protein, UniProt P33681 35-288, looked up, variant E35D M47L Y53F V68M A71G K93R E95V) T-lymphocyte activation …: VIHVTKEVKEVATLSCGHNVSVEELAQTRIYWQKDKKMVLTMMSGDLNIWPEFKNRTIFDITNNLSIMILGLRPSDEGTYECVVLKYEKDAFRRVHLAEVTLSVKADFPTPSISDFEIPTSNIRRIICSTSGGFPEPHLSWLENGEELNAINTTVSQDPETELYAVSSKLDFNMTTNHSFMCLIKYGHLRVNQTFNWNTTKQEHFPDNLLPSWAITLISVNGIFVICCLTYCFAPRCRERRRNERLRRESVRPV , readout=Ratio of PDL1:CD28) returns 65.3

Just so you know, measured Ratio of PDL1:CD28 for T13R/Q33R/E35D/M47L/V68M (protein, CD80 v381 ECD) VIHVTKEVKEVARLSCGHNVSVEELAQTRIYWRKDKKMVLTMMSGDLNIWPEYKNRTIFDITNNLSIMILALRPSDEGTYECVVLKYEKDAFKREHLAEVTLSVKADFPTPSISDFETPTSNIRRIICSTSGGFPEPHLSWLENGEELNAINTTVSQDPETELYAVSSKLDFNMTTNHSFMCLIKYGHLRVNQTFNWNTTKQEHFPDN came out at 1041.1

According to the records, this molecule T13R/Q33L/E35D/M47L/V68M/L85M (protein, UniProt P33681 35-288, looked up, variant T13R Q33L E35D M47L V68M L85M) T-lymphocyte activation …: VIHVTKEVKEVARLSCGHNVSVEELAQTRIYWLKDKKMVLTMMSGDLNIWPEYKNRTIFDITNNLSIMILALRPSDEGTYECVVMKYEKDAFKREHLAEVTLSVKADFPTPSISDFEIPTSNIRRIICSTSGGFPEPHLSWLENGEELNAINTTVSQDPETELYAVSSKLDFNMTTNHSFMCLIKYGHLRVNQTFNWNTTKQEHFPDNLLPSWAITLISVNGIFVICCLTYCFAPRCRERRRNERLRRESVRPV displays Ratio of PDL1:CD28 of 205.6
